Listing: IC50 of selected compounds
- target: BTK (Homo sapiens, UniProt Q06187)
- Sequence (Q06187 whole entry): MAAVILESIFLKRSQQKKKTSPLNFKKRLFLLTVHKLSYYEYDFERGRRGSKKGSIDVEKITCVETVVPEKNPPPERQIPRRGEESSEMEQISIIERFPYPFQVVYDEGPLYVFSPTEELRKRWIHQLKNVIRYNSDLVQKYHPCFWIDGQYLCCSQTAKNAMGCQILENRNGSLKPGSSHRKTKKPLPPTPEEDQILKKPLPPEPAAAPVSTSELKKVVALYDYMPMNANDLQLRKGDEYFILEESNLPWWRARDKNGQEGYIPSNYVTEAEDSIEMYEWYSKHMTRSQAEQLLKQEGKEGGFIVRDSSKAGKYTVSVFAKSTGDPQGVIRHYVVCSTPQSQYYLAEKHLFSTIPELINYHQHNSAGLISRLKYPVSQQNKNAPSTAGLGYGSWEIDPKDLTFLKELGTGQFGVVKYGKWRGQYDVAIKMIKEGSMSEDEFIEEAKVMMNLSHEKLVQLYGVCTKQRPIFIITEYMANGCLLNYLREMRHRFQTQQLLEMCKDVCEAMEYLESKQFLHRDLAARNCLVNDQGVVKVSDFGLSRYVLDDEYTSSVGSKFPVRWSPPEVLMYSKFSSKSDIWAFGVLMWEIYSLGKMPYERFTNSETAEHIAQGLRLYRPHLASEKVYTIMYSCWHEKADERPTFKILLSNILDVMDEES
- experimentNotes: BTK in vitro inhibition
- Type: biochemical

Below: 4 compounds and their reported IC50.
C/C=C(\C)C(=O)N1CCOc2ccc(-c3csc4c(=O)cc(N5CCOCC5)oc34)cc21 ... > 45 µM
C/C=C/C(=O)N1CCOc2ccc(-c3csc4c(=O)cc(N5CCOCC5)oc34)cc21 ... 10 to 45 µM
C=CS(=O)(=O)N(c1cc(-c2csc3c(=O)cc(N4CCOCC4)oc23)ccc1OC)S(=O)(=O)C=C ... < 0.5 µM
C=CC(=O)N1CCOc2ccc(-c3csc4c(=O)cc(N5CCN(C)CC5)oc34)cc21 ... < 0.5 µM

Test system BTK (Homo sapiens, UniProt Q06187); read-out IC50; what value for C/C=C(/C)C(=O)N1CCOc2ccc(-c3csc4c(=O)cc(N5CCOCC5)oc34)cc21 ?
10 to 45 µM

Test system BTK (Homo sapiens, UniProt Q06187); read-out IC50; what value for O=C(C1=CCCC1)N1CCOc2ccc(-c3csc4c(=O)cc(N5CCOCC5)oc34)cc21 [Compound 40] ?
> 45 µM

Test system BTK (Homo sapiens, UniProt Q06187); read-out IC50; what value for C=CC(=O)N1CCOc2ccc(-c3csc4c(=O)cc(N5CCN(C(=O)OC(C)(C)C)CC5)oc34)cc21 ?
< 0.5 µM

* * *

- Tested on: SARS-CoV-2
- experimentNotes: microbe, parasite or virus in culture
- Type: cell-based
- experimentalSetup: Severe acute respiratory syndrome coronavirus 2, 24 h, read-out: Median Effective Dose
readout: EC50 (nM)
Report the value in nM with no unit label.

Recorded EC50 for CCC(CC)COC(=O)[C@H](C)N[P@](=O)(OC[C@H]1O[C@@](C#N)(c2ccc3c(N)ncnn23)[C@H](O)[C@@H]1O)Oc1ccccc1 [Remdesivir, reference compound] , please?
272

* * *

- target: UniProt Q06187
- experimentNotes: BTK in vitro inhibition
- Format: biochemical
Listing: IC50 of selected compounds

Below: 6 compounds and their reported IC50.
C=CC(=O)N1CCOc2ccc(-c3csc4c(=O)cc(N5CCOCC5)oc34)cc21 ... < 0.5 µM
N#C/C(=C\C1CC1)C(=O)Nc1cccc(-c2csc3c(=O)cc(N4CCOCC4)oc23)c1 ... 10 to 45 µM
C=CS(=O)(=O)Nc1cc(-c2csc3c(=O)cc(N4CCOCC4)oc23)ccc1OC ... < 0.5 µM
CCCCC/C=C/C(=O)Nc1cccc(-c2csc3c(=O)cc(N4CCOCC4)oc23)c1 ... > 45 µM
C=CS(=O)(=O)N(CCS(=O)(=O)N(c1cc(-c2csc3c(=O)cc(N4CCOCC4)oc23)ccc1OC)S(=O)(=O)C=C)c1cc(-c2csc3c(=O)cc(N4CCOCC4)oc23)ccc1OC ... 1 to 10 µM
COc1cc(NC(C)=O)cc(-c2csc3c(=O)cc(N4CCOCC4)oc23)c1 ... 0.5 to 1 µM

Let us move to another entry and its IC50.
Recorded IC50 for O=c1cc(N2CCOCC2)oc2c(-c3ccc4c(c3)OCCO4)csc12 , please?
10 to 45 µM

* * *

- target: PI3K gamma (Homo sapiens)
- Sequence (P48736 whole entry): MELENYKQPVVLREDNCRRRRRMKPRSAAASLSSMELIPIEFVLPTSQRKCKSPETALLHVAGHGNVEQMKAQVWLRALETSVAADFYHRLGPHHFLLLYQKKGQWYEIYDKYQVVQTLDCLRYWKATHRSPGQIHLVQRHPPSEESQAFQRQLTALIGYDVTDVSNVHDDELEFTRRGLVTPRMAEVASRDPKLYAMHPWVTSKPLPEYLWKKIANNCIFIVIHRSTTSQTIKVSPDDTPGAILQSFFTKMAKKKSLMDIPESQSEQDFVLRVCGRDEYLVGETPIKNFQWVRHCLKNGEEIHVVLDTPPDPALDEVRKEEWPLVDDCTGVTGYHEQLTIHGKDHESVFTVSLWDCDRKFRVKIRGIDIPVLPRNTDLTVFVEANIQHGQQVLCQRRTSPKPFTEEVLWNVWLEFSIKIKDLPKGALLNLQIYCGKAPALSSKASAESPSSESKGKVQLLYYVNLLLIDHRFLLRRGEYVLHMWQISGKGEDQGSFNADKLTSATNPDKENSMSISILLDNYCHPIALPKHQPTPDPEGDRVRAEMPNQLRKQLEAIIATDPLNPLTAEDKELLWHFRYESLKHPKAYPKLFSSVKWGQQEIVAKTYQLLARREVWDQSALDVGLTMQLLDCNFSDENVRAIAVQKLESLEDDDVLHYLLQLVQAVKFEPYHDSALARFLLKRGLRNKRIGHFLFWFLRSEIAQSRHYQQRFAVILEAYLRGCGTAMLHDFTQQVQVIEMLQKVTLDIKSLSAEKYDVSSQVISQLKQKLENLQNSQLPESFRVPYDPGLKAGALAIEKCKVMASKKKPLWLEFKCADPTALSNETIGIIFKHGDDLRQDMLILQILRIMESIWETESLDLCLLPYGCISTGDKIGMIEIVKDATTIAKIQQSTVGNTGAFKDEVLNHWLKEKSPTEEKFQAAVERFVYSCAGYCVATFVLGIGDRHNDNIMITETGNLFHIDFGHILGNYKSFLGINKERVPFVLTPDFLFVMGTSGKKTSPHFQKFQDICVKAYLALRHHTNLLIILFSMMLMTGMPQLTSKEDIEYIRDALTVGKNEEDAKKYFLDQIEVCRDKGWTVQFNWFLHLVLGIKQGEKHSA
- experimentNotes: PI3K gamma in vitro inhibition
- Type: biochemical
- experimentalSetup: read-out: IC50 inhibition PI3K gamma
readout: IC50

Below: 5 compounds and their reported IC50.
C/C=C(/C)C(=O)N1CCOc2ccc(-c3csc4c(=O)cc(N5CCOCC5)oc34)cc21 ... 0.5 to 1 µM
CNC(=O)c1cc2cnc(Nc3ccc(C#Cc4csc5c(=O)cc(N6CCOCC6)oc45)cc3)nc2n1C1CCCC1 ... 0.5 to 1 µM
O=C(NCc1cccnc1)c1cc(-c2csc3c(=O)cc(N4CCOCC4)oc23)cc2c1OCCO2 ... < 0.5 µM
O=C(O)c1cc2cnc(Nc3ccc(-c4csc5c(=O)cc(N6CCOCC6)oc45)cc3)nc2n1C1CCCC1 ... < 0.5 µM
Cc1nn(-c2ccnc(Nc3ccc(-c4csc5c(=O)cc(N6CCNCC6)oc45)cc3)n2)cc1CN1CC(O)C1 ... > 45 µM

Recorded IC50 for C=CC(=O)Nc1cc(-c2csc3c(=O)cc(N4CCOCC4)oc23)ccc1OC , please?
1 to 10 µM

Recorded IC50 for Cc1nn(-c2ccnc(Nc3ccc(-c4csc5c(=O)cc(N6CCOCC6)oc45)cc3)n2)cc1CN(C)CCO , please?
10 to 45 µM

Recorded IC50 for COc1cc(NC(C)=O)cc(-c2csc3c(=O)cc(N4CCOCC4)oc23)c1 , please?
< 0.5 µM

* * *

- target: PI3K alpha (Homo sapiens, UniProt P42336)
- Sequence (P42336 whole entry): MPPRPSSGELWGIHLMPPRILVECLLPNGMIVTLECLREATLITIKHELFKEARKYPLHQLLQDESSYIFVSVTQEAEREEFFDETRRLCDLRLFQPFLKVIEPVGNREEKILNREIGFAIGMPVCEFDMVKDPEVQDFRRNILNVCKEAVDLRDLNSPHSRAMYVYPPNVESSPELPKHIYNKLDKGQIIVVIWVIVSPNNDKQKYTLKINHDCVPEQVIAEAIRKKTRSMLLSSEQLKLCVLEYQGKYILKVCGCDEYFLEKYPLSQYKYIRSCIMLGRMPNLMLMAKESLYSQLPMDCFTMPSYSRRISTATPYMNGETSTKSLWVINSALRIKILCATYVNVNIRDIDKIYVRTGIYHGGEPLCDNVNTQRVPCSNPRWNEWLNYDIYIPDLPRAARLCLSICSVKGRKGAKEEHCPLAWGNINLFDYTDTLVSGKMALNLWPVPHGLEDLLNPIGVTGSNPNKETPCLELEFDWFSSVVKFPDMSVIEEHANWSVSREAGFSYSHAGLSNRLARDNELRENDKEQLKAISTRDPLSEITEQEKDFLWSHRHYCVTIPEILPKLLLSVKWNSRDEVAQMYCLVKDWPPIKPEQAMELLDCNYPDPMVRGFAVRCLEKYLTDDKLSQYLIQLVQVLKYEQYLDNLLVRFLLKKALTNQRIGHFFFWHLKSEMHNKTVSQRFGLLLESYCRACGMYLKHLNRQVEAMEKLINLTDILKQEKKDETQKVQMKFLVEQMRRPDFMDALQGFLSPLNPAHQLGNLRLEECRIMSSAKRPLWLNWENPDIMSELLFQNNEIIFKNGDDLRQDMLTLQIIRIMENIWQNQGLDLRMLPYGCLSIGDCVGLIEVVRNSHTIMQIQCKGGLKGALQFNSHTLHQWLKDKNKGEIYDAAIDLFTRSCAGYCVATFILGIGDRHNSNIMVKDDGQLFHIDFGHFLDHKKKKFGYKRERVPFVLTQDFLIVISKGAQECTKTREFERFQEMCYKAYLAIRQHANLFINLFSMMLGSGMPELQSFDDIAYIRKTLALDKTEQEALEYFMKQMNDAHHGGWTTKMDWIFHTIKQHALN
- Sequence (P27986 whole entry partner): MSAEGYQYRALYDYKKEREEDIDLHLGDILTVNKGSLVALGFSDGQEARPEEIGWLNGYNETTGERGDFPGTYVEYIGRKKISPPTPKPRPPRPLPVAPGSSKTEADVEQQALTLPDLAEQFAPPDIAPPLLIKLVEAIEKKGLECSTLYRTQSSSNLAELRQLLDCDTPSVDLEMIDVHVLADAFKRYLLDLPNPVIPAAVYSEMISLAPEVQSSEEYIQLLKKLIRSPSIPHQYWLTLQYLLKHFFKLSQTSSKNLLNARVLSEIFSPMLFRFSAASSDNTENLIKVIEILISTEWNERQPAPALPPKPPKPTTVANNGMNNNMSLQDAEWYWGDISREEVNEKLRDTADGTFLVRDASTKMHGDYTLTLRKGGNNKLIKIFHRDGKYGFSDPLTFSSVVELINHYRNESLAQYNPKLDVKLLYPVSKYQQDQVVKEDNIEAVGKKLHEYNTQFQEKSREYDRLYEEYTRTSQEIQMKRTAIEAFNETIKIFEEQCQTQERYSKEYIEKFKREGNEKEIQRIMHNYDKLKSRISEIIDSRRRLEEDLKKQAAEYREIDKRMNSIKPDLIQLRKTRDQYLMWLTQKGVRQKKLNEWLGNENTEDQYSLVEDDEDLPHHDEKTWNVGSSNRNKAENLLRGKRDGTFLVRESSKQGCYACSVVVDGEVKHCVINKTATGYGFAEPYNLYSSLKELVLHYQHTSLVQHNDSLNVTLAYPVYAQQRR
pIC50: −log10 of the molar value.
Listing: pIC50 of selected compounds

Below: 2 compounds and their reported pIC50.
CN(C)C(=O)c1cc2cnc(N3CCOc4cc(-c5csc6c(=O)cc(N7CCOCC7)oc56)ccc43)nc2n1C1CCCC1 [Compound 24] ... > 6.30
C=CC(=O)Nc1cccc(-c2csc3c(=O)cc(N4CCOCC4)oc23)c1 [Compound 31] ... > 6.30

Test system PI3K alpha (Homo sapiens, UniProt P42336); read-out pIC50; what value for C=CS(=O)(=O)Nc1cccc(-c2csc3c(=O)cc(N4CCOCC4)oc23)c1 [Compound 46] ?
> 6.30

Test system PI3K alpha (Homo sapiens, UniProt P42336); read-out pIC50; what value for Cc1nn(-c2ccnc(Nc3ccc(-c4csc5c(=O)cc(N6CCOCC6)oc45)cc3)n2)cc1CN(C)CCO [Compound 59] ?
5.00 to 6.00

Test system PI3K alpha (Homo sapiens, UniProt P42336); read-out pIC50; what value for CC(C)n1c(C(=O)N(C)C)cc2cnc(Nc3ccc(-c4csc5c(=O)cc(N6CCOCC6)oc45)cc3)nc21 [Compound 25] ?
> 6.30

Test system PI3K alpha (Homo sapiens, UniProt P42336); read-out pIC50; what value for C=CC(=O)Nc1ccc(-c2csc3c(=O)cc(N4CCOCC4)oc23)cc1 [Compound 30] ?
> 6.30

Test system PI3K alpha (Homo sapiens, UniProt P42336); read-out pIC50; what value for CN(C)C(=O)c1cc2cnc(Nc3ccc(-c4csc5c(=O)cc(N6CCOCC6)oc45)c(C(=O)NCCN)c3)nc2n1C1CCCC1 [Compound 22] ?
6.00 to 6.30

* * *

- target: PI3K delta (Homo sapiens)
- Sequence (O00329 whole entry, one chain of several): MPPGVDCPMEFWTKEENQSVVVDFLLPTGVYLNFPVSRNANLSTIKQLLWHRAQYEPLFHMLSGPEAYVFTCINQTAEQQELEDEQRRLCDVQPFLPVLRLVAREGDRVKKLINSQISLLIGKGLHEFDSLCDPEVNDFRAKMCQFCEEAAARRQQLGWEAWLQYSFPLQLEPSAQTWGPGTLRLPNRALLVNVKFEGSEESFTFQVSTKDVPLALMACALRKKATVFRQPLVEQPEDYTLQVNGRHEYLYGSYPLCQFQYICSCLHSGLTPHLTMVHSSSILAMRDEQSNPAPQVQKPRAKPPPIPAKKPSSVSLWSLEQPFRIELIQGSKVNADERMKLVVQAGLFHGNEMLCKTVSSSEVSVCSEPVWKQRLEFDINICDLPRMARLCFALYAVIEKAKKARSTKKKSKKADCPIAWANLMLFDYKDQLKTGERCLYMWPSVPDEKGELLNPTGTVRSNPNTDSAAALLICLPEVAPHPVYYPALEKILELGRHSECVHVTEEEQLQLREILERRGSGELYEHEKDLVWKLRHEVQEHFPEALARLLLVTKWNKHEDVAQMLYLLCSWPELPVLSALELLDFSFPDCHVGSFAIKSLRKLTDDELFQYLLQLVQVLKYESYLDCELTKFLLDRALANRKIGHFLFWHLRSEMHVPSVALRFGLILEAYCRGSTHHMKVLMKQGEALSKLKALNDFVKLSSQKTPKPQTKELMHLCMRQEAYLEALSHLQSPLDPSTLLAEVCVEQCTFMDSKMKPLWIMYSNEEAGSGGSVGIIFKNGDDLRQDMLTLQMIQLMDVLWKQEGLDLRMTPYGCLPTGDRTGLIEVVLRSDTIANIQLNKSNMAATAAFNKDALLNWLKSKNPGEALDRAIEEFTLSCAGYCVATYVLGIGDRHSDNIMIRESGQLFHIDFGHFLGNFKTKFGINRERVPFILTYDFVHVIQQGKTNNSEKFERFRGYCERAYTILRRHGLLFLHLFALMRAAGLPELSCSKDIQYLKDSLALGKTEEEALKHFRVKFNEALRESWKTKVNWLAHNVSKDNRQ
- experimentNotes: PI3K delta in vitro inhibition
- Assay type: biochemical
- Procedure: The kinase or bromodomain inhibitory activity of a compound of the invention can be determined by routine methods known to the skilled artisan without undue experimentation, or by procuring relevant analysis by a commercial vendor offering such services. […] Alternatively, inhibitor binding may be determined by running a competition experiment where a provided compound is incubated with a bromodomain-containing protein, such as a BET protein bound to known ligands, labeled or unlabeled. […]
pIC50: −log10 of the molar value.
readout: pIC50

Cc1nc2c(F)cc(-c3nc(Nc4ccc(-c5csc6c(=O)cc(N7CCOCC7)oc56)cc4)ncc3F)cc2n1C(C)C [Compound 25-1] ... 5.00 to 6.00
CC(C)(C)OC(=O)Nc1cc2cnc(Nc3ccc(-c4csc5c(=O)cc(N6CCOCC6)oc45)cc3)nc2n1C1CCCC1 [Compound 25-3] ... > 6.30
Cc1nn(-c2ccnc(Nc3ccc(-c4csc5c(=O)cc(N6CCNCC6)oc45)cc3)n2)cc1CN1CCC1 [Compound 55] ... 5.00 to 6.00
Cc1nn(-c2ccnc(Nc3ccc(-c4csc5c(=O)cc(N6CCOCC6)oc45)cc3)n2)cc1CN(C)CCO [Compound 59] ... 5.00 to 6.00
Cc1nn(-c2ccnc(Nc3ccc(-c4csc5c(=O)cc(N6CCOCC6)oc45)cc3)n2)cc1CN(C)C [Compound 57] ... 6.00 to 6.30
Cc1nn(-c2ccnc(Nc3ccc(-c4csc5c(=O)cc(N6CCOCC6)oc45)cc3)n2)cc1CN1CCOCC1 [Compound 58] ... > 6.30

Let us move to another entry and its pIC50.
Recorded pIC50 for Cc1nn(-c2ccnc(Nc3ccc(-c4csc5c(=O)cc(N6CCOCC6)oc45)cc3)n2)cc1CN1CC(O)C1 [Compound 52] , please?
5.00 to 6.00

* * *

Listing: IC50 of selected molecules
- target: BTK (Homo sapiens, UniProt Q06187)

C=CS(=O)(=O)N1CCCc2ccc(-c3csc4c(=O)cc(N5CCOCC5)oc34)cc21 ... < 500 nM
C=CS(=O)(=O)N(c1cccc(-c2csc3c(=O)cc(N4CCOCC4)oc23)c1)S(=O)(=O)C=C ... < 500 nM
C=CS(=O)(=O)N(C)c1cccc(-c2csc3c(=O)cc(N4CCOCC4)oc23)c1 ... < 500 nM

Let us move to another entry and its IC50.
Test system BTK (Homo sapiens, UniProt Q06187); read-out IC50; what value for C=CC(=O)Nc1cc(-c2csc3c(=O)cc(N4CCOCC4)oc23)ccc1OC ?
1000 to 10000 nM

The measured values listed here are drawn from patent US20230165873A1.
